Molecular target: GABBR2 (Homo sapiens, UniProt O75899)
Construct: purchased Promega (in-house HiBiT-GPCR construct library, NanoBRET)
Sequence (O75899 42-941): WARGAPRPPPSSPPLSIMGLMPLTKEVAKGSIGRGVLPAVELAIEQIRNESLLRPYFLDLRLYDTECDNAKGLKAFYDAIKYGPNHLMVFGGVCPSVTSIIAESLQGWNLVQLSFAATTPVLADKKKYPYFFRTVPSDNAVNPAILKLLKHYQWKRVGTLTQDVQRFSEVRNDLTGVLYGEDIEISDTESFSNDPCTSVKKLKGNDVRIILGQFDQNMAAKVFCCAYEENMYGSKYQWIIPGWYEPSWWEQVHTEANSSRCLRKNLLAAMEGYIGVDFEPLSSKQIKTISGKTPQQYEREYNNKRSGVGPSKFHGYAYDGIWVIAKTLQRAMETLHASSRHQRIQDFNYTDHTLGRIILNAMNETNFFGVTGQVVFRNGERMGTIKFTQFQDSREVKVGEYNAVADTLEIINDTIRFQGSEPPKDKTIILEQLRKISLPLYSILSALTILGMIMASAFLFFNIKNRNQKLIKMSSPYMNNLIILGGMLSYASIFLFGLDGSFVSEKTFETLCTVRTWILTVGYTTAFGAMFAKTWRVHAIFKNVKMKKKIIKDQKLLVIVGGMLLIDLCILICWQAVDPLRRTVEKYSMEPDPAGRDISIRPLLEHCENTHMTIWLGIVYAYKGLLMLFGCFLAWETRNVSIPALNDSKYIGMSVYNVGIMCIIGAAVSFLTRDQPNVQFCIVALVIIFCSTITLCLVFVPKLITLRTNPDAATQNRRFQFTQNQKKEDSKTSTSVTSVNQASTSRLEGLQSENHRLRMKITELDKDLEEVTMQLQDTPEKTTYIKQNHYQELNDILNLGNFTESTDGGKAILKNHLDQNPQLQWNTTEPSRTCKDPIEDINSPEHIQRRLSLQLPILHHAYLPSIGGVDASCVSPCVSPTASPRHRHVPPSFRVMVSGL
Test: NanoBRET screen HiBiT-GABBR2 in HEK293
Format: binding
Conditions: GABBR2; tracer 0.1μM
Documented NanoBRET Fold Response across a set of molecules
measured-attribute: NanoBRET Fold Response

- molecule: "O=C(CCOCCOCCOCCOCCNC(=O)CCc1ccc2n1[B-](F)(F)[N+]1=C(c3ccc[nH]3)C=CC1=C2)NCCCN1CCN(C2=Nc3ccccc3Oc3ccc(Cl)cc32)CC1"
  assayed-system: "GABBR2 (Homo sapiens, UniProt O75899)"
  measured-attribute: "NanoBRET Fold Response"
  quantitative-readout: 1.03
- molecule: "CC(C)N(CC[C@H](c1ccccc1)c1cc(CCNC(=O)c2ccc(CNC(=O)CCc3ccc4n3[B-](F)(F)[N+]3=C(c5ccc[nH]5)C=CC3=C4)cc2)ccc1O)C(C)C"
  assayed-system: "GABBR2 (Homo sapiens, UniProt O75899)"
  measured-attribute: "NanoBRET Fold Response"
  quantitative-readout: 0.87
- molecule: "O=C(CCc1ccc2n1[B-](F)(F)[N+]1=C(c3ccc[nH]3)C=CC1=C2)NCc1ccc(C(=O)NCCOCCC(=O)N[C@@H]2CC[C@@]3(O)[C@H]4Cc5ccc(O)c6c5[C@@]3(CCN4CC3CC3)[C@H]2O6)cc1 [Naltrexone-3-NB590]"
  assayed-system: "GABBR2 (Homo sapiens, UniProt O75899)"
  measured-attribute: "NanoBRET Fold Response"
  quantitative-readout: 0.80
- molecule: "N#CN=C(NCCCOc1cccc(CN2CCCCC2)c1)NCCNC(=O)CCOCCOCCOCCOCCNC(=O)CCc1ccc2n1[B-](F)(F)[N+]1=C(c3ccc[nH]3)C=CC1=C2"
  assayed-system: "GABBR2 (Homo sapiens, UniProt O75899)"
  measured-attribute: "NanoBRET Fold Response"
  quantitative-readout: 1.03
- molecule: "Cc1cc2c(s1)Nc1ccccc1N=C2N1CCN(CCCNC(=O)CCOCCOCCOCCOCCNC(=O)CCc2ccc3n2[B-](F)(F)[N+]2=C(c4ccc[nH]4)C=CC2=C3)CC1"
  assayed-system: "GABBR2 (Homo sapiens, UniProt O75899)"
  measured-attribute: "NanoBRET Fold Response"
  quantitative-readout: 1.01
